experiment: in vitro; details: human, hela cells, % viability
MEASURED_ATTRIBUTE: viability at 28.5 h, 10 µM (%)

compound=O=C(NCCN1CCOCC1)c1cc(-c2cccc(Br)c2)nc2ccccc12 measured_attribute="viability at 28.5 h, 10 µM" readout_value=90.2
compound=c1ccc(-c2nnc(Cn3cncn3)o2)cc1 measured_attribute="viability at 28.5 h, 10 µM" readout_value=88
compound=CCN(CCO)c1ccc(Nc2nc(-c3c(OC)cccc3OC)cn3ccnc23)cc1 measured_attribute="viability at 28.5 h, 10 µM" readout_value=89.9
compound=O=S(=O)(NCCCN1CCN(Cc2ccccc2)CC1)c1cccc(Cl)c1Cl measured_attribute="viability at 28.5 h, 10 µM" readout_value=114
compound=CCOC(=O)CN1CCN(C(=O)Nc2ccccc2Br)CC1 measured_attribute="viability at 28.5 h, 10 µM" readout_value=103
compound=O=C(CSc1cnn[nH]1)Nc1cccc(C(F)(F)F)c1 measured_attribute="viability at 28.5 h, 10 µM" readout_value=90.8
compound=Cn1c(=O)c(C(N)=O)c(O)c2ccccc21 measured_attribute="viability at 28.5 h, 10 µM" readout_value=78.6
compound=N#CCCCN1CCC(Oc2nccnc2OCc2ccc(Cl)cc2Cl)CC1 measured_attribute="viability at 28.5 h, 10 µM" readout_value=94.4
compound=CCn1c(=O)n(CC(=O)NCc2ccc(F)cc2)c2cccnc21 measured_attribute="viability at 28.5 h, 10 µM" readout_value=87.8
compound=O=C(Cc1ccc(Cl)cc1)NCCc1c[nH]c2ccccc12 measured_attribute="viability at 28.5 h, 10 µM" readout_value=87
compound="Cc1nc(CN2CCCC(NCc3cccc(C(N)=O)c3)C2)no1 (stereo not shown)" measured_attribute="viability at 28.5 h, 10 µM" readout_value=94.2
compound=COC(=O)c1c(NC(=S)NCc2ccc(S(N)(=O)=O)cc2)sc2c1CCC2 measured_attribute="viability at 28.5 h, 10 µM" readout_value=88.5
compound=CN(C)c1cccc(Nc2cc(-c3ccc(CCC(=O)O)cc3)ncn2)c1 measured_attribute="viability at 28.5 h, 10 µM" readout_value=93.1
compound=O=c1nc(O)c2ccccc2s1 measured_attribute="viability at 28.5 h, 10 µM" readout_value=94.9
compound="CC(C)CCn1cc(C(=O)N2CCNCC2c2cccc(Cl)c2)nn1 (stereo not shown)" measured_attribute="viability at 28.5 h, 10 µM" readout_value=91.4
compound=CC(C)(C)c1ccc(OCc2nnc(Sc3nc4ccc([N+](=O)[O-])cc4s3)n2-c2ccccc2)cc1 measured_attribute="viability at 28.5 h, 10 µM" readout_value=105
compound=COc1ccc2ncc(C#N)c(Nc3ccc(OC)c(OC)c3)c2c1 measured_attribute="viability at 28.5 h, 10 µM" readout_value=92.3
compound=CCc1nnc(NS(=O)(=O)c2ccc(N/C=C3\C(=O)N(c4ccc(C)cc4)N=C3C)cc2)s1 measured_attribute="viability at 28.5 h, 10 µM" readout_value=100
compound=Cc1onc(-c2ccccc2)c1C(=O)N1CCC(C(N)=O)CC1 measured_attribute="viability at 28.5 h, 10 µM" readout_value=84.4
compound="Cc1cnc2[nH]c(C3CCCN(C(=O)c4cnn(C)c4C)C3)cc2c1 (stereo not shown)" measured_attribute="viability at 28.5 h, 10 µM" readout_value=101
compound=O=C(Cn1c([C@H]2CCCO2)cc2cccnc21)NC1CCCC1 measured_attribute="viability at 28.5 h, 10 µM" readout_value=88.8
compound="CC(C)(C)OC(=O)N1CCCC2(CCCN(C(=O)c3ccco3)C2)C1 (stereo not shown)" measured_attribute="viability at 28.5 h, 10 µM" readout_value=94.7
compound=CC(C)(C)OCc1[nH]nc(O)c1Cc1c(Cl)cccc1Cl measured_attribute="viability at 28.5 h, 10 µM" readout_value=106
compound=COc1ccccc1CNCc1ccccc1OC measured_attribute="viability at 28.5 h, 10 µM" readout_value=106
compound=Cc1cc(I)ccc1NC(=O)CN(c1ccccc1)S(=O)(=O)c1ccccc1[N+](=O)[O-] measured_attribute="viability at 28.5 h, 10 µM" readout_value=78.6
compound=Cc1ccc2nc(N(CCCN(C)C)C(=O)c3ccco3)sc2c1 measured_attribute="viability at 28.5 h, 10 µM" readout_value=114
compound="Fc1ccc(-c2ccc(CNCc3ccncc3)o2)cc1 [CBK270158C]" measured_attribute="viability at 28.5 h, 10 µM" readout_value=92.7
compound=CC(C)C(=O)Nc1cc2cccnc2c(-c2ccc3c(c2)CCO3)n1 measured_attribute="viability at 28.5 h, 10 µM" readout_value=114
compound=O=C(NCCCn1ccnc1)C1CCN(C(=O)c2cccc(Cl)c2)CC1 measured_attribute="viability at 28.5 h, 10 µM" readout_value=116
compound="CC(C)(C)NC(=O)NCC(c1ccc[nH]1)C(F)(F)F (stereo not shown)" measured_attribute="viability at 28.5 h, 10 µM" readout_value=92.3
compound=CC(=O)c1ccc(-c2nccnc2NCCc2ccncc2)s1 measured_attribute="viability at 28.5 h, 10 µM" readout_value=99.9
compound=COc1ncc(-c2cncc(NCc3cccc(Cl)c3)n2)c(OC)n1 measured_attribute="viability at 28.5 h, 10 µM" readout_value=106
compound=COc1cccc(-c2cnc(N)c(NCc3ccco3)n2)c1 measured_attribute="viability at 28.5 h, 10 µM" readout_value=99.6
compound=O=C(Cc1c[nH]cn1)N1CCN(c2ncccn2)CC1 measured_attribute="viability at 28.5 h, 10 µM" readout_value=105

====

experiment: in vitro; details: human, hela cells, % viability
MEASURED_ATTRIBUTE: viability at 28.5 h, 10 µM (%)

compound="Cc1ccc(S(=O)(=O)Nc2cc(C)on2)cc1 [CBK261119]" measured_attribute="viability at 28.5 h, 10 µM" readout_value=93.7
compound="Cc1nn(C)cc1CNC(=O)c1cc2ncc(Br)cn2n1 [CBK304336]" measured_attribute="viability at 28.5 h, 10 µM" readout_value=102
compound="COc1ccccc1NC(=O)CNC(=O)c1ccc([N+](=O)[O-])cc1 [CBK268657]" measured_attribute="viability at 28.5 h, 10 µM" readout_value=91.9
compound="O=[N+]([O-])c1ccc(O)c(/C=N/Nc2nc(Nc3ccc(Cl)cc3)nc(N3CCOCC3)n2)c1 [CBK260918]" measured_attribute="viability at 28.5 h, 10 µM" readout_value=90.2
compound="COc1ccc(CC(=O)N2CCC(c3cc4ccccc4cn3)C2)cc1 (stereo not shown) [CBK283421]" measured_attribute="viability at 28.5 h, 10 µM" readout_value=105
compound="CN1CCN(C(=O)c2ccc(NS(=O)(=O)c3ccc(Oc4ccccc4)cc3)cc2)CC1 [CBK034559]" measured_attribute="viability at 28.5 h, 10 µM" readout_value=97.4
compound="COc1ccc(Cn2c(=O)n(S(=O)(=O)c3cccc(-c4nnc(C)o4)c3)c3ccccc32)cc1 [CBK106558]" measured_attribute="viability at 28.5 h, 10 µM" readout_value=89.8
compound="Cn1cc(-c2nccnc2OCc2ccccn2)cn1 [CBK107067]" measured_attribute="viability at 28.5 h, 10 µM" readout_value=97.2
compound="O=C(CCc1cc(F)ccc1F)NCCCn1nc2n(c1=O)CCCC2 [CBK305782]" measured_attribute="viability at 28.5 h, 10 µM" readout_value=97.7
compound="CN1CCN(CC(O)COc2ccccc2)CC1 (stereo not shown) [CBK278191G]" measured_attribute="viability at 28.5 h, 10 µM" readout_value=83.8
compound="NS(=O)(=O)c1ccccc1Cl [CBK113172]" measured_attribute="viability at 28.5 h, 10 µM" readout_value=98.1
compound="Cc1cc(C)n(C(C)CNC(=O)C(C)Cn2cccn2)n1 (stereo not shown) [CBK281639]" measured_attribute="viability at 28.5 h, 10 µM" readout_value=87.6
compound="O=S(=O)(c1ccccc1)N1CC2(CCNCC2)c2ccccc21 [CBK137413]" measured_attribute="viability at 28.5 h, 10 µM" readout_value=84.2
compound="CC(C)(C)OC(=O)N1CCC(OCc2cn(-c3ccc(-n4cncn4)cc3)nn2)CC1 [CBK149477]" measured_attribute="viability at 28.5 h, 10 µM" readout_value=87.1
compound="O=C(C1CC1)N1CC2CCCC(C1)C2(O)c1cccnc1F (stereo not shown) [CBK282889]" measured_attribute="viability at 28.5 h, 10 µM" readout_value=99.6
compound="CS(=O)(=O)c1ccc(Cn2c(=O)n(S(=O)(=O)c3ccccc3)c3ccccc32)cc1 [CBK106530]" measured_attribute="viability at 28.5 h, 10 µM" readout_value=95.1

====

Reported values of viability at 28.5 h, 10 µM for individual entries
experiment: in vitro; conditions: human, hela cells, % viability
MEASURED_ATTRIBUTE: viability at 28.5 h, 10 µM (%)

compound="Cc1ccc(CN(C2CCN(C)CC2)S(=O)(=O)c2ccccc2F)cc1 [CBK160444T]" readout_value=90.8
compound="O=C(C1CC1)N1CCC2(CC1)Nc1cccnc1-n1cccc12 [CBK284504]" readout_value=107
compound="Cc1cc(C)c2nc(C(F)(F)F)nc(NCCCN3CCOCC3)c2c1 [CBK266753]" readout_value=86.4
compound="CC(Oc1ccccc1)C(=O)Nc1ccccc1-c1ccccc1 (centres unmarked) [CBK264059]" readout_value=111
compound="O=C(CCSc1ccc(Cl)cc1)Nc1ccc(S(=O)(=O)N2CCOCC2)cc1 [CBK264133]" readout_value=95.5
compound="O=C(O)CC(C(=O)O)N1C(=O)/C(=C2/C(=O)Nc3ccc(Br)cc32)SC1=S (centres unmarked) [CBK261791]" readout_value=104
compound="NCCSc1cc(C(F)(F)F)nc2ccccc12 [CBK017035]" readout_value=81.9
compound="CN1CCC(N2CCC[C@H]2c2nc(-c3ccnc(N4CCOCC4)c3)no2)CC1 [CBK288880]" readout_value=94.4
compound="Cc1ccc2cc(CN(CCN(C)C)C(=S)Nc3ccccc3)c(=O)[nH]c2c1 [CBK134909]" readout_value=104
compound="CC1(CNC(=O)C2CC(=O)N(C3CCCCC3)C2)COC1 (centres unmarked) [CBK281754]" readout_value=97
compound="COc1ccc(S(=O)(=O)N2CCC(C(=O)Nc3cccc(F)c3)CC2)cc1C [CBK267987]" readout_value=92
compound="Cn1nc(C(C)(C)C)cc1C(=O)N1CCC(N2C(=O)OCC2(C)C)CC1 [CBK044234]" readout_value=81.5
compound="Cc1ccc(S(=O)(=O)N2CCC(OC(N)=O)CC2)cc1 [CBK003369]" readout_value=106
compound="CCOC(=O)CN1CCC(Oc2nccnc2OC2CCCCC2)CC1 [CBK082867T]" readout_value=106
compound="O=C(Nc1ccc(S(=O)(=O)NCCN2CCOCC2)cc1)N1CCCC1 [CBK270015]" readout_value=89.8
compound="CC(C)c1ccc(/C=C/C(=O)NCc2ccc(S(N)(=O)=O)cc2)cc1 [CBK161511]" readout_value=110
compound="CC(=O)Nc1cccc(C(=O)N2CCC(OCc3ccccn3)CC2)c1 [CBK307009]" readout_value=114
compound="CC(C)(C)OC(=O)N1CCC(N2CCc3cc(-c4ccc(S(C)(=O)=O)cc4)ccc3C2)CC1 [CBK165796]" readout_value=82.7
compound="Cc1oc(-c2cccs2)cc1C(=O)O [CBK021183]" readout_value=93.5
compound="CCN1CC(C(=O)N2CCN(C)CC2c2ccccc2)CC1=O (centres unmarked) [CBK282026]" readout_value=92.2
compound="CCn1ncc(CN(C)C(=O)CCC2CCCCN2C)c1C (centres unmarked) [CBK307329]" readout_value=116
compound="CN(C)C(=O)c1cccc(NC(=O)C2CCCCC2)c1 [CBK304515]" readout_value=89.7
compound="CC(C)c1nc(CCN(C)C(=O)NCc2cnc3cnccn23)no1 [CBK307666]" readout_value=108
compound="C[C@@H]1CN(C)CCN1c1nccnc1OCCOc1cccnc1OCCCCCN(C)C [CBK051566]" readout_value=103
compound="CCOc1ccc(CN(C)C(C)C(=O)Nc2cc(C)no2)cc1 (centres unmarked) [CBK305607]" readout_value=96.6
compound="C=CCN1CCc2cc(-c3cncn3CC(=O)NC(C)(C)C)ccc21 [CBK281923]" readout_value=86.7
compound="COCCN1CCn2c(nc3cc(NC(=O)c4ccccc4)ccc32)C1 [CBK307410]" readout_value=89.4
compound="Nc1c(Cc2c(Cl)cccc2Cl)c(=O)n2n1CCCC2 [CBK089337]" readout_value=95
compound="Cc1ccc(NC(=O)OCC(F)(F)C(F)F)cc1Cl [CBK026548]" readout_value=93.1
compound="Fc1ccc(-c2cncc(Nc3ccc4c(c3)OC(F)(F)C(F)(F)O4)n2)c(F)c1 [CBK065692]" readout_value=103
compound="COc1cc(CN2CCN(C(=O)c3cccc(Cl)c3)CC2)cc(OC)c1OC [CBK074530]" readout_value=97.1
compound="CN(C)S(=O)(=O)c1ccc(C(=O)Nc2ccccc2O)cc1 [CBK267809]" readout_value=94.1
